Source of measurements: paper PMC9783754

Subject Of Test: T1, Recombinant human sTNF (soluble form of tumor necrosis factor) (human, UniProt P01375 77-233)
T1 construct: additional N-terminal methionine, stated in words; tumor necrosis factor, human, soluble form (157 residues), residues 77-233 of UniProt entry P01375; Monomeric on the SPR chip after long flushing and glycine pH 3.3 washes; multimeric in solution in the fluorimetric titrations and cross-linking; also called TNF-α; TNF ligand superfamily member 2; source: bought: Prospec-Tany Technogene (catalog # …)
Assay Overview: SPR; ligand (50 μg/mL sTNF or TNF-β) immobilised on a ProteOn GLH chip by amine coupling; chip flushed with running buffer for two days and several times with 10 mM glycine pH 3.3 to dissociate sTNF multimers (monomeric sTNF); Ca2+-loaded S100 protein as analyte, 10 nM–2 µM; 25 °C; 10 mM HEPES, 150 mM NaCl, 1 mM CaCl2, 0.05% TWEEN 20, pH 7.4; heterogeneous ligand model
Conditions Used: both partners purified
This listing pairs binders with measured Kd.

Prompt: For Recombinant human S100A3 (natural protein, UniProt P33764 1-101, looked up, S100A3, human; Ca2+-loaded in the assay; source: E. coli, purified as previously described) MARPLEQAVAAIVCTFQEYAGRCGDKYKLCQAELKELLQKELATWTPTEFRECDYNKFMSVLDTNKDCEVDFVEYVRSLACLCLYCHEYFKDCPSEPPCSQ , what is its reported Kd?
Response: > 100 µM

Prompt: Dear colleague, I am looking for the recorded Kd of the following binder: Recombinant human S100A16 (natural protein, UniProt Q96FQ6 1-103, looked up, S100A16, human; Ca2+-loaded in the assay; source: E. coli, purified as previously described) MSDCYTELEKAVIVLVENFYKYVSKYSLVKNKISKSSFREMLQKELNHMLSDTGNRKAADKLIQNLDANHDGRISFDEYWTLIGGITGPIAKLIHEQEQQSSS
Response: > 100 µM
